- assaySystem: Aster-A (Homo sapiens, UniProt Q96CP6)
- Sequence (Q96CP6 359-547): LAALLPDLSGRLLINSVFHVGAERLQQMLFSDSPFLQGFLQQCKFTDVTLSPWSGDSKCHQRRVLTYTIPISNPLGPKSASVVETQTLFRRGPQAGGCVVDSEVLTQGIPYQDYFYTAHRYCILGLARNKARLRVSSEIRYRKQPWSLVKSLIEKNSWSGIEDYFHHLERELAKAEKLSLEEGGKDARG
List of IC50 values.

* CC12CCC3CC1CCC21C(=Nc2c(Br)cc(C(F)(F)F)cc21)O3 (stereo not shown) [Compound 15h] | > 80 µM
* CCCCN(C)c1ccc2c(c1)[C@@]13CC[C@@H]4C[C@@H](CC[C@@]41C)OC3=N2 [Compound 19d] | 3.89 µM
* C[C@]12CC[C@@H]3C[C@H]1CC[C@@]21C(=Nc2ccc(N4CCN(Cc5ccncc5)CC4)cc21)O3 | 5.33 µM

Next compound, please.
Q: IC50 lookup needed for CC12CCC3CC1CCC21C(=Nc2ccc(N4CCOCC4)cc21)O3 (single isomer, unassigned; (+)) [(+)-19a] , thanks.
Ans: 15.4 µM

====

- assaySystem: Aster-A (Homo sapiens)
- Construct: Aster-A(359-547); GST (PreScission-cleavable) (N, cleaved yes); made in house; host or cells: E. coli OverExpress C41
- protocolSummary: Fluorescence polarisation (FP) competition with NBD-cholesterol, Aster-A
- Format: binding
- assaySetup: single dose, Dose = 10 µM
Listed below: inhibition at 10 µM values for each entry.
Note: a bare number is incomplete; add the unit.

Solved cases below.
• CC12CCC3CC1CCC21C(=Nc2ccc(N4CCNCC4)cc21)O3 (stereo not shown) [Compound 22] = 10%
• C[C@]12CC[C@@H](O)C[C@H]1CCc1nc3ccccc3nc12 [Compound 7a] = 14%
• COc1ccc(-c2ccc3c(c2)C24CCC5CC(CCC52C)OC4=N3)cc1 (stereo not shown) [Compound 21b] = 72%
• Cc1ccc2c(c1)C(=O)CC[C@@H]1C[C@H](O)CC[C@]1(C)C(=O)N2 [Compound 11c] = -4%

Q: // inhibition at 10 µM lookup, key: C[C@]12CC[C@@H](O)C[C@H]1CCC[C@]21NC(=O)c2ccc(F)cc2N1 [Compound 5b]
Ans: -1%

Q: Okay, and CC12CCC3CC1CCC21C(=Nc2ccc(NCc4ccccc4)cc21)O3 (stereo not shown) [Compound 19b] ?
Ans: 4%

Q: Another compound: COc1ccc2c(c1)[C@@]13CC[C@@H]4C[C@@H](CC[C@@]41C)OC3=N2 [Compound 15f]
Ans: 51%

====

- assaySystem: STARD1 (Homo sapiens)
- Construct: STARD1(66-284); made in house; host or cells: E. coli BL21(DE3)
- Sequence (P49675 66-284): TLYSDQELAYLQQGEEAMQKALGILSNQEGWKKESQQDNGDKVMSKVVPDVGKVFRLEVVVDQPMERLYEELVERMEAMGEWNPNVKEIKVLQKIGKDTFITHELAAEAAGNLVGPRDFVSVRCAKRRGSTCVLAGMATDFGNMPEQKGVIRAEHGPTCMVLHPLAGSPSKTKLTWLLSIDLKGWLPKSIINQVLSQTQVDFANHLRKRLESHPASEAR
- protocolSummary: Fluorescence polarisation (FP) competition with NBD-cholesterol, STARD1
- Format: binding
- assaySetup: single dose, Dose = 10 µM
inhibition at 10 µM of 20% or higher: MET. Under 20%: NOT MET.

* C[C@]12CC[C@@H](O)C[C@H]1CCc1[nH]c(-c3ccccc3)nc12 [Compound 9] | NOT MET

Q: State whether the measured inhibition at 10 µM reaches 20%, counting equality as reaching it, for Cc1cc(C)c2c(c1)N=C1[C@@]2(O)CC[C@@H]2C[C@H](O)CC[C@]12C [Compound 14c]
Ans: NOT MET

====

ΔTm at 10 µM overview
- assaySystem: STARD3 (Homo sapiens)
- Construct: STARD3(216-444); made in house; host or cells: E. coli BL21(DE3)
- Sequence (Q14849 216-444): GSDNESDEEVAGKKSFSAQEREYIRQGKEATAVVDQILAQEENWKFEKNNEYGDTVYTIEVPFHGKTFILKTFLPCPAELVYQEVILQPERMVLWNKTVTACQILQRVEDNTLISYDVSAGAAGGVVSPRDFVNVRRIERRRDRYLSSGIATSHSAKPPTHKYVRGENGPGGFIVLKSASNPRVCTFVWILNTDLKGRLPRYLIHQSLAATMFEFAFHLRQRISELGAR
- protocolSummary: Differential scanning fluorimetry (DSF), STARD3
- Assay type: binding
- assaySetup: single dose, Dose = 10 µM
Answer in °C, number only, no unit symbol.

- Cc1ccc2[nH]c3c(c2c1)CC[C@@H]1C[C@H](O)CC[C@]31C [Compound 10e]: 0.0774
- CC12CCC3CC1CCC21C(=Nc2ccc(N4CCOCC4)cc21)O3 (single isomer, unassigned; (+)) [(+)-19a]: 1.5
- C[C@]12CC[C@@H](O)C[C@H]1CCc1c2[nH]c2ncccc12: -0.0743

Q: Requested read-out: ΔTm at 10 µM. Entry: CC12CCC3CC1CCC21C(=Nc2ccc(NCc4ccccc4)cc21)O3 (stereo not drawn) [Compound 19b]
Ans: 3.3

Q: Could you do the same for C[C@]12CC[C@@H](O)C[C@H]1CCC[C@]21NC(=O)c2ccc(F)cc2N1 , please?
Ans: -0.121

Q: Try C[C@]12CC[C@@H]3C[C@H]1CC[C@@]21C(=Nc2ccc(Br)cc21)O3 (racemic) [Compound 15b] next.
Ans: 0.3

====

ΔTm at 10 µM values for the compounds below.
- assaySystem: STARD4 (Homo sapiens, UniProt Q96DR4, C75S)
- Construct: STARD4(2-205; C75S); made in house; host or cells: E. coli BL21(DE3)
- Sequence (Q96DR4 2-205 C75S): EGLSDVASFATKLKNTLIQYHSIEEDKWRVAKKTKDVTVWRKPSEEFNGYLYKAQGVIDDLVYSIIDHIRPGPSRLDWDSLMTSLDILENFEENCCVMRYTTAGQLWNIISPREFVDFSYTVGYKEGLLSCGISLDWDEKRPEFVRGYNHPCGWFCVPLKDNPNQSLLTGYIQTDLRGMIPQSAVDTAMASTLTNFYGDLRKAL
- protocolSummary: Differential scanning fluorimetry (DSF), STARD4
- Format: binding
- assaySetup: single dose, Dose = 10 µM
Reply numerically in °C, unit not repeated.

Here is how some compounds turned out for ΔTm at 10 µM.
• Cc1cc(C)c2c3c([nH]c2c1)[C@@]1(C)CC[C@@H](O)C[C@H]1CC3 [Compound 10j] = -0.144
• C[C@]12CC[C@@H](O)C[C@H]1CCC[C@]21NC(=O)c2ccc(F)cc2N1 = -0.0901
• CC12CCC3CC1CCC21C(=Nc2ccc(Br)cc21)O3 (single isomer, unassigned; (+)) [(+)-15b] = 0.0899

Then there is this compound:
Q: Which measured ΔTm at 10 µM value corresponds to COc1ccc(-c2nc3c(s2)CC[C@@H]2C[C@H](O)CC[C@]32C)cc1 ?
Ans: 0.3

====

- assaySystem: STARD5 (Homo sapiens)
- Construct: STARD5(6-213); host or cells: E. coli BL21(DE3)
- Sequence (Q9NSY2 6-213): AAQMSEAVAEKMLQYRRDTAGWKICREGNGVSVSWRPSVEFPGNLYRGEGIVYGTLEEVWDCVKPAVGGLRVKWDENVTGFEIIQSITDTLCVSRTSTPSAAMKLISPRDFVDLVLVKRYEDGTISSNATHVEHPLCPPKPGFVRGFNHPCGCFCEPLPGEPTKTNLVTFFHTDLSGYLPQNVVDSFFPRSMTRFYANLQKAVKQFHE
- protocolSummary: Differential scanning fluorimetry (DSF), STARD5
- Type: binding
- assaySetup: single dose, Dose = 10 µM
Each entry gets 0.0 if its STARD5 (DSF) ΔTm stays under 0.2 °C, and 1.0 if its STARD5 (DSF) ΔTm is 0.2 °C or above.

Consider the worked cases shown below.
- Cc1nc2c(s1)CC[C@@H]1C[C@H](O)CC[C@]21C: 0.0
- C[C@]12CC[C@@H](O)C[C@H]1CCC(=O)c1ccccc1NC2=O [Compound 11a]: 0.0
- C[C@]12CC[C@@H](O)C[C@H]1CCC[C@]21NC(=O)c2ccccc2N1: 0.0
- C[C@]12CC[C@@H](O)C[C@H]1CCC(=O)c1cc(Cl)cc(F)c1NC2=O [Compound 11f]: 0.0
- C[C@]12CC[C@@H](O)C[C@H]1CCc1c2[nH]c2ccc(Br)cc12 [Compound 10b]: 0.0

Q: I'd appreciate it if you could say whether C[C@]12CC[C@@H](O)C[C@H]1CCc1c2[nH]c2ccc(I)cc12 [Compound 10h] has STARD5 (DSF) ΔTm at least equal to 0.2 °C.
Ans: 1.0

Q: Input C[C@]12CC[C@@H](O)C[C@H]1CCc1sc(-c3ccc(F)cc3)nc12
Ans: 1.0

Q: Further, for C[C@]12CC[C@@H](O)C[C@H]1CCc1c2[nH]c2ccc(Cl)cc12 [Compound 10c] ?
Ans: 0.0

Q: Again, but for CC(C)Oc1ccc(C(=O)Nc2nc3c(s2)CN(C(=O)OC(C)(C)C)CC3)cc1 [Autogramin-2, reference compound]
Ans: 1.0

Q: Please give the result for C[C@]12CC[C@@H](O)C[C@H]1CCc1sc(-c3cccnc3)nc12 too.
Ans: 0.0

Q: Could you do the same for CCCCCN(c1ccc2c(c1)[C@@]13CC[C@@H]4C[C@@H](CC[C@@]41C)OC3=N2)c1ccc2c(c1)[C@@]13CC[C@@H]4C[C@@H](CC[C@@]41C)OC3=N2 [Compound 20b] , please?
Ans: 0.0

Q: Now this one: C[C@]12CC[C@@H](O)C[C@H]1CCc1c2nc2ccc(Cl)cc2c1-c1ccccc1
Ans: 1.0

Q: Entry to check: CC12CCC3CC1CCC21C(=Nc2ccc(N4CCOCC4)cc21)O3 (single isomer, unassigned; (-)) [(−)-19a]
Ans: 1.0

Q: Now give it for C[C@]12CC[C@@H](O)C[C@H]1CCc1nc3cc(Cl)c(Cl)cc3nc12 too.
Ans: 0.0

// provenance: paper PMC11758220
